- MEASUREMENT_NOTES: gradient 5% acetonitrile 3 min, to 50% in 2 min, to 85% in 15 min, held 3 min, 100 µL/min
- EXPERIMENTAL_PARAMETERS: column: Zorbax Extend-C18 2.1 x 50 mm; eluents: water / acetonitrile, 0.1% formic acid
RECORDED_METRIC: RP-LC retention time (s)

Reference set, count: 3
1) CCC1Oc2ccc(S(=O)(=O)N3CCC(C(=O)NCc4ccco4)CC3)cc2NC1=O (stereo not given) ... 795
2) CCN1CCCn2cc(S(=O)(=O)NC3CCN(Cc4ccccc4)CC3)cc2C1=O ... 597
3) Cc1nnc2n1CCN(C(=O)c1nn(C)c3ccccc13)C2 ... 605

I = COCC1CN(Cc2cccc3[nH]ccc23)CC12CCNCC2 (stereo not given)
II = CCNC(=O)C1CCCN(C(=O)Nc2ccc(NC(=O)Nc3ccc(C)c(C)c3)cc2)C1 (stereo not given)
Look at I and II . Which one has the lower recorded RP-LC retention time number? The response must carry the label of the picked entry.
I
(I: 510 s, II: 748 s)

* * *

- MEASUREMENT_NOTES: gradient 5% acetonitrile 3 min, to 50% in 2 min, to 85% in 15 min, held 3 min, 100 µL/min
- EXPERIMENTAL_PARAMETERS: column: Zorbax Extend-C18 2.1 x 50 mm; eluents: water / acetonitrile, 0.1% formic acid
RECORDED_METRIC: RP-LC retention time (s)

1. CCOC(=O)N1CCC2(CC1)N=C(c1ccc(Cl)cc1)CC(c1cccc(OC)c1O)N2 (centres undefined) ... 781

A = CCOC(=O)c1ccc(NC(=O)c2cc3c(=O)n(CC(C)C)c4ccccc4n3n2)cc1
B = Cc1ccc(C)c(S(=O)(=O)N2CCC(c3noc(COCC4CC4)n3)CC2)c1
Look at A and B . Which one has the lower recorded RP-LC retention time number? The response must carry the label of the picked entry.
A

I = COc1ccc(CNC2=NCCNC23CCN(S(=O)(=O)c2ccc(C)cc2C)CC3)cc1
II = CC1CCN(S(=O)(=O)c2ccc(-c3nnc(C(=O)NCCCc4ccccc4)o3)cc2)CC1
Look at I and II . Which one has the lower recorded RP-LC retention time number? The response must carry the label of the picked entry.
I
(I: 775 s, II: 1150 s)

1 = CCCNc1cc(N2CCC(CCC(=O)NCc3ccc(N4CCOCC4)cc3)CC2)ncn1
2 = O=C(NC1CCCCC1)c1cn(-c2cc(-c3nc(C4CC4)no3)ccn2)cn1
Look at 1 and 2 . Which one has the lower recorded RP-LC retention time number? The response must carry the label of the picked entry.
1

I = O=C(NCCCn1cccn1)c1cccc2[nH]cc(CN3CCSCC3)c12
II = CCC(C)NC(=O)C1CCN(S(=O)(=O)c2cc(-c3noc(C(C)C)n3)sc2C)CC1 (centres undefined)
Look at I and II . Which one has the lower recorded RP-LC retention time number? The response must carry the label of the picked entry.
I
(I: 628 s, II: 1020 s)

* * *

- MEASUREMENT_NOTES: gradient 5% acetonitrile 3 min, to 50% in 2 min, to 85% in 15 min, held 3 min, 100 µL/min
- EXPERIMENTAL_PARAMETERS: column: Zorbax Extend-C18 2.1 x 50 mm; eluents: water / acetonitrile, 0.1% formic acid
RECORDED_METRIC: RP-LC retention time (s)

1. COc1ccc(NC(=O)N2CCCC(C)(C(=O)NCc3ccccc3)C2)cc1 (stereo not given) ... 828
2. Cc1cc(=O)n(CC(=O)Nc2ccc(F)cc2F)c(-c2ccc(F)cc2)n1 ... 1050
3. O=S(=O)(NCc1cccnc1)c1ccc(Cl)c(-c2nnc(-c3ccccc3)o2)c1 ... 707

I = COC(=O)C1=CN(c2ccccc2C)c2ccccc2S1(=O)=O
II = CC(C)N1CCc2c(sc(NC(=O)c3ccc([N+](=O)[O-])s3)c2C(N)=O)C1
Return label of the item with the larger RP-LC retention time. Candidates: I , II . The response must carry the label of the picked entry.
I

src = the METLIN SMRT retention time set (Domingo-Almenara et al. 2019)
